- Tested Target: full-length beta-Catenin (Uniprot ID P35222) (Homo sapiens)
- Construct: 10 nM full-length beta-Catenin (Uniprot ID P35222)
- Sequence (P35222 whole entry): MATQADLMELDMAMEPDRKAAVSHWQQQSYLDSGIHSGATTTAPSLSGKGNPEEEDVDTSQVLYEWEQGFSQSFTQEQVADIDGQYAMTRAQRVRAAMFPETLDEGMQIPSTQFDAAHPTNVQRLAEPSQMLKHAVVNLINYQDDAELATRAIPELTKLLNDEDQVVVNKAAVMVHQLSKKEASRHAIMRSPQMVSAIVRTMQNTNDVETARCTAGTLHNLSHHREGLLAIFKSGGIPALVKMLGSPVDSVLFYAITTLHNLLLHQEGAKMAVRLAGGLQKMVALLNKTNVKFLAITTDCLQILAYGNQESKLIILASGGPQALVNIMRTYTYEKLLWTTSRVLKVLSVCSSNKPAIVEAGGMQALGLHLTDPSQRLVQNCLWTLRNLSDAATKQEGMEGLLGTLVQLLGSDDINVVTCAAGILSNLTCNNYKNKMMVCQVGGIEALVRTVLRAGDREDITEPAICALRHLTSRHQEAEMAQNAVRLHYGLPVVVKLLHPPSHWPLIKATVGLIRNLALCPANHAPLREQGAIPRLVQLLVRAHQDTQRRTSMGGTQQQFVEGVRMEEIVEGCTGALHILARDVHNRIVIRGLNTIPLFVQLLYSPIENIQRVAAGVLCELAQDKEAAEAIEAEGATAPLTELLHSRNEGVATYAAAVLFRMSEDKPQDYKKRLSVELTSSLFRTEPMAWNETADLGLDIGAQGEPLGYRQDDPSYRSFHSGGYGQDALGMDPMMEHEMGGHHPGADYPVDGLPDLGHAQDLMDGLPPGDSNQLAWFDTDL
- Protocol: Fluorescence polarization IC50 (beta-catenin / 5FAM-TCF4 10-53 competition)
- Format: binding
- Setup Conditions: fluorescence polarization; read-out: beta-Catenin FP IC50
Items are presented alongside their recorded IC50.
Reply with just the number (in nM).

{"Molecule": "CC(=O)N1CCC[C@]12CC=CCCCC1(CCCC=CCCCOC(=O)N3CC[C@@](C(=O)N[C@@H](Cc4ccsc4)C(=O)N[C@@H](Cc4csc5ccccc45)C(=O)N[C@@H](CCC(N)=O)C(N)=O)(C3)NC(=O)[C@H](CC(C)C)NC(=O)[C@H](Cc3ccccc3)NC(=O)[C@H](C)NC(=O)[C@H](C)NC(=O)[C@H](CC(=O)O)NC(=O)[C@H](CC(=O)O)NC1=O)NC(=O)[C@H](CC(C)(C)C)NC(=O)[C@H](CC(N)=O)NC2=O (stereo partly drawn)", "IC50 (nM)": 14}
{"Molecule": "CC(=O)N1CCC[C@]12CC=CCCCC1(CCCC=CCCCOC(=O)N3CC[C@@](C(=O)N[C@@H](Cc4ccsc4)C(=O)N[C@@H](Cc4csc5ccccc45)C(=O)N[C@@H](CCC(=O)N(C)C)C(=O)N[C@@H](C)C(N)=O)(C3)NC(=O)[C@H](CC(C)C)NC(=O)[C@H](Cc3ccccc3)NC(=O)[C@H](C)NC(=O)[C@H](C)NC(=O)[C@H](CN(CC(=O)O)CC(F)(F)F)NC(=O)[C@H](CC(=O)O)NC1=O)NC(=O)[C@H](CC(C)(C)C)NC(=O)[C@H](CC(=O)O)NC2=O (stereo partly drawn)", "IC50 (nM)": 10}

Pending molecule:
**Query** Read the entry CC(=O)N1CCC[C@]12CC=CCCCC1(CCCC=CCCCOC(=O)N3CC[C@@](C(=O)N[C@@H](Cc4ccccc4C(F)(F)F)C(=O)N[C@@H](Cc4csc5ccccc45)C(=O)N[C@@H](C)C(N)=O)(C3)NC(=O)[C@H](CC(C)C)NC(=O)[C@H](Cc3ccccc3)NC(=O)[C@H](C)NC(=O)[C@H](CCC(N)=O)NC(=O)[C@H](Cn3cc(CCC(=O)O)nn3)NC(=O)[C@H](CC(=O)O)NC1=O)NC(=O)[C@H](CC(C)(C)C)NC(=O)[C@H](CC(=O)O)NC2=O (stereo partly drawn) and write its reported IC50.
**Result** 7

---

- Protocol: CHI Log D procedure
- Assay type: physicochemical
- Setup Conditions: pH 7.4
Items are presented alongside their recorded CHI Log D.

These solved cases illustrate the format of a correct answer.
{"Compound": "CC(=O)N1CCC[C@]12CC=CCCCC1(CCCC=CCCCCCC[C@@](C)(C(=O)N[C@@H](Cc3ccccc3)C(=O)N[C@@H](Cc3csc4ccccc34)C(=O)N[C@@H](CCC(N)=O)C(N)=O)NC(=O)[C@H]([C@@H](C)O)NC(=O)[C@H](Cc3ccccc3)NC(=O)[C@H](C)NC(=O)[C@H](C)NC(=O)[C@H](CCC(=O)O)NC(=O)[C@H](CC(=O)O)NC1=O)NC(=O)[C@H](CC(C)C)NC(=O)[C@H](CC(=O)O)NC2=O (some centres unmarked) [I-622]", "CHI Log D": 2.453}
{"Compound": "CC(=O)N1CCC[C@]12CC=CCCCC1(CCCC=CCCCOC(=O)N3CC[C@@](C(=O)N[C@@H](Cc4ccsc4)C(=O)N[C@@H](Cc4csc5ccccc45)C(=O)N[C@@H](CO)C(N)=O)(C3)NC(=O)[C@H](CC(C)C)NC(=O)[C@H](Cc3ccccc3)NC(=O)[C@H](C)NC(=O)[C@H](C)NC(=O)[C@H](CN(CC(=O)O)CC(F)(F)F)NC(=O)[C@H](CC(=O)O)NC1=O)NC(=O)[C@H](CC(C)(C)C)NC(=O)[C@H](CC(=O)O)NC2=O (some centres unmarked) [I-961]", "CHI Log D": 2.123}
{"Compound": "CC(=O)N1CCC[C@]12CC=CCCCC1(CCCC=CCCCCOC(=O)N3CC[C@@](C(=O)N[C@@H](Cc4ccsc4)C(=O)N[C@@H](Cc4csc5ccccc45)C(=O)N[C@@H](Cc4c[nH]cn4)C(=O)N[C@@H](C)C(N)=O)(C3)NC(=O)[C@H](CC(N)=O)NC(=O)[C@H](Cc3ccccc3)NC(=O)[C@H](C)NC(=O)[C@H](C)NC(=O)[C@H](CC(=O)O)NC(=O)[C@H](CC(=O)O)NC1=O)NC(=O)[C@H](CC(C)(C)C)NC(=O)[C@H](CC(=O)O)NC2=O (some centres unmarked) [I-828]", "CHI Log D": 2.137}

**Query** Read the entry CC(=O)N[C@@H](Cc1ccccc1)C(=O)N[C@@H](CC(=O)O)C(=O)N[C@@H](C)C(=O)N[C@]1(C)CCCCCC=CCOC(=O)N2CC[C@@](C(=O)N[C@@H](Cc3ccccc3)C(=O)N[C@@H](Cc3c[nH]c4ccccc34)C(=O)N[C@@H](CCC(N)=O)C(N)=O)(C2)NC(=O)[C@H](C(C)C)NC(=O)[C@H](Cc2ccccc2)NC(=O)[C@H](C)NC(=O)[C@H](C)NC(=O)[C@H](CC(=O)O)NC(=O)[C@H](CC(=O)O)NC1=O [I-31] and write its reported CHI Log D.
**Result** 1.245

**Query** Read the entry CC(=O)N1CCC[C@]12CC=CCCCC1(CCCC=CCCCCCC[C@@](C)(C(=O)N[C@@H](Cc3cccc(F)c3)C(=O)N[C@@H](Cc3csc4ccccc34)C(=O)N[C@@H](CCC(N)=O)C(N)=O)NC(=O)[C@H](C(C)C)NC(=O)[C@H](Cc3ccccc3)NC(=O)[C@H](C)NC(=O)[C@H](C)NC(=O)[C@H](Cc3c[nH]cn3)NC(=O)[C@H](CC(=O)O)NC1=O)NC(=O)[C@H](C)NC(=O)[C@H](CC(=O)O)NC2=O (some centres unmarked) [I-397] and write its reported CHI Log D.
**Result** 2.828
